Every entry's value here was drawn from PubChem BioAssay (NCATS).

ASSAY_NOTES: qHTS drug screen for cell cycle checkpoint inhibitors in PARPi-resistant BRCA-mutant ovarian cancer cell lines. (AID 1963452)
STUDY_CONDITIONS: PEO1/OlaR viability, CellTiter-Glo luminescence, 96 h; measured here: PEO1 parental Z-AUC; stronger effect = lower value
Positions of bridges follow the written chain, without caps; N, C: chain ends. Non-standard residues stand in square brackets, D forms with d. Residues, ends and D or L forms follow the SMILES beside them. ξ: configuration not given here. *: point of attachment. Octanoyl(6-Me) = CCC(C)CCCCC(=O)*; ξThr(3R) = C[C@@H](O)C(N)C(=O)O; dDab = NCC[C@@H](N)C(=O)O; Dab = NCC[C@H](N)C(=O)O
Lab note: compare Z-AUC with -0.08, writing yes (1) if less and no (0) if equal or more.

[Q] Hello, I'm reviewing records and need to know if Z-AUC of CCC(C)CCCCC(=O)N[C@@H](CCN)C(=O)NC(C(=O)N[C@H](CCN)C(=O)N[C@@H]1CCNC(=O)C([C@@H](C)O)NC(=O)[C@@H](CCN)NC(=O)[C@@H](CCN)NC(=O)[C@@H](CC(C)C)NC(=O)[C@H](Cc2ccccc2)NC(=O)[C@H](CCN)NC1=O)[C@@H](C)O (stereo partly drawn) ({Octanoyl(6-Me)}-[Dab][ξThr(3R)][dDab][dDab][Dab]F[dL][dDab][dDab][ξThr(3R)]; lactam 4-C) is below -0.08. Could you check?
[A] no (0)

[Q] Hello, I'm reviewing records and need to know if Z-AUC of O=C(Nc1ccc(Oc2ccnc3[nH]ccc23)c(F)c1)c1cccn(-c2ccc(F)cc2)c1=O is below -0.08. Could you check?
[A] no (0)

[Q] Hello, I'm reviewing records and need to know if Z-AUC of O=C(O)c1ccc(Nc2ncc3c(n2)-c2ccc(Cl)cc2C(c2c(F)cccc2F)=NC3)cc1 is below -0.08. Could you check?
[A] no (0)

[Q] Hello, I'm reviewing records and need to know if Z-AUC of c1cncc(CN2CCC(n3ncc4c(N5CCOCC5)nc(-c5ccc6[nH]ccc6c5)nc43)CC2)c1 is below -0.08. Could you check?
[A] no (0)

[Q] Hello, I'm reviewing records and need to know if Z-AUC of COc1cc2c(cc1OC)[C@@H]1C(=O)c3ccc4c(c3O[C@@H]1CO2)C=CC(C)(C)O4 is below -0.08. Could you check?
[A] yes (1)

[Q] Hello, I'm reviewing records and need to know if Z-AUC of CCCCOc1ccc(C(=O)Nc2ccc(F)cc2F)cc1 is below -0.08. Could you check?
[A] yes (1)

----------
ASSAY_NOTES: Quantitative High-Throughput drug screen in 47 multiple myeloma cell lines against the NCATS MIPE library collection: MM1S_ATCC cell viability assay (AID 1918980); further: nearly all actives have a fitted effect of over 45% in size
STUDY_CONDITIONS: MM1S myeloma viability, CellTiter-Glo ATP luminescence, 48 h; series mostly up to 45.8 µM
Results filed as inconclusive are left out. Calls of active or inactive are those of the source. The call rests on the fitted dose curve; in most records, active means well fitted cell-killing curve with a large enough effect; inconclusive means small, poorly fitted or top-dose-only effect, or effect the other way; inactive means no such curve, though single readings can be large or run the other way.
Choose one outcome from this list and give only that: T = active, F = inactive

[Q] Record lookup: outcome of this test for C=C1C[C@@]2(O)O[C@@]3(C[C@H]2C(C)C)[C@H](C)CC[C@H]13 ?
[A] T

[Q] Record lookup: outcome of this test for c1ccc(CNc2nc(NCc3ccccc3)c3ccccc3n2)cc1 ?
[A] T

[Q] Record lookup: outcome of this test for C=C1C(=O)O[C@H]2[C@@H]1CCC(C)=CCC[C@@]1(C)O[C@@H]21 ?
[A] T

[Q] Record lookup: outcome of this test for CC(C=CC(=O)NO)=C[C@@H](C)C(=O)c1ccc(N(C)C)cc1 ?
[A] T

[Q] Record lookup: outcome of this test for O=C(CN1C(=O)C2(CCCC2)NC[C@H]1c1cc(F)cc(F)c1)Nc1ccc2c(c1)C[C@@]1(C2)C(=O)Nc2ncccc21 ?
[A] F
